B1: Osa-1-4 twister ribozyme (parent)
chain: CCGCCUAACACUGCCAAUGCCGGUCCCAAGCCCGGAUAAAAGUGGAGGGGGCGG

variants of: B1; assay: self-cleavage, relative activity (ratio to wild type); higher = more cleavage; co-transcriptional
Mark class 1 for reported self-cleavage of 0.06 or greater; mark class 0 for anything smaller.

>>> df
    mutation_notation      cat
 0           A7C G53U  class 0
 1          C14U G34U  class 1
 2          G53C U43A  class 1
 3           C9A G49C  class 0
 4          G53A U37C  class 1
 5          C26A G49A  class 0
 6          C21U G51C  class 1
 7          G35C G51C  class 0
 8          A28G A41G  class 1
 9           A10G A7U  class 1
10          A36G G49C  class 1
11          A46U U24G  class 0
12          G45C U12G  class 0
13          G50C U24A  class 1
14          C27G G47C  class 1
15          A40C C27G  class 0
16          C15U G44A  class 1
17          A39U U18A  class 1
18          A16U C31U  class 1
19          C33A G30U  class 0
20          C14U C15G  class 1
21          C25U G13A  class 1
22          A41C G50U  class 1
23          C15G G49C  class 0
24          C11U G49A  class 1
25          C11U G35A  class 1
26          C21G G34A  class 1
27          C31A G53C  class 0
28          A16U G13A  class 1
29          G30U U12G  class 0
30          G35A G48C  class 1
31           A8C U37G  class 1
32            A8C C9G  class 0
33          C26A G30A  class 0
34          A16U A38C  class 1
35           A8G G49C  class 0
36          C32A G19C  class 0
37           A36G A8C  class 1
38          A16U U24A  class 1
39          G35C U12C  class 1
40           C9G G44A  class 1
41          G47U G50A  class 1
42          C14G G45C  class 0
43           A36G A7U  class 1
44           C14U C9A  class 1
45          A38U G50U  class 1
46          C32A G54U  class 1
47          A38G C20U  class 1
48          G34A U12A  class 1
49          A40U G30A  class 0
50           A17G C9U  class 1
51          A10U G19C  class 0
52          A10C G13A  class 0
53          C11U G51A  class 1
54          A38G C33G  class 1
55          C11U G19A  class 1
56          A41U C25A  class 1
57          C11A G44C  class 1
58          A29C U37C  class 0
59          G49C U43G  class 0
60          A36C G13A  class 0
61          G49U U37A  class 1
62          A17G G54C  class 1
63          C14G G51C  class 0
64          C26A G13C  class 0
65           A7U C14U  class 1
66          G13C U43C  class 0
67          G44C G51C  class 1
68          A28C C31G  class 1
69               C20U  class 1
70          U24A U37C  class 1
71           A8U G54A  class 1
72          G44C U37G  class 1
73          C11A C15A  class 1
74          A16C A29U  class 1
